Test: UV-vis spectra and molar extinction coefficient in KMOPS buffer
Type: physicochemical
Conditions: 0.1 mM in KMOPS buffer, pH 7.2 (3d, 6c: 10 or 20% CH3CN added)

{"compound": "C=CCc1ccc(OCc2cc(OC)c3ccc(O)c(C#N)c3n2)c(OC)c1 [7c]", "λmax": "351 nm"}
{"compound": "COc1cc(COc2ccc3[nH]cc(CCN)c3c2)nc2c(C#N)c(O)ccc12.O=C(O)C(F)(F)F [4c]", "λmax": "355 nm"}
{"compound": "N#Cc1c(O)ccc2c(N3CCOCC3)cc(COc3cc(CCN)ccc3O)nc12.O=C(O)C(F)(F)F [3b]", "λmax": "358 nm"}
{"compound": "CCCN(CCc1cccs1)[C@@H]1CCc2c(cccc2OCc2cc(OC)c3ccc(O)c(C#N)c3n2)C1 [5c]", "λmax": "343 nm"}
{"compound": "CCCCCCCCC(=O)NCc1ccc(OCc2cc(OC)c3ccc(O)c(C#N)c3n2)c(OC)c1 [6c]", "λmax": "341 nm"}
{"compound": "Cc1cc(COc2cc(CCN)ccc2O)nc2c(C#N)c(O)ccc12.O=C(O)C(F)(F)F [3a]", "λmax": "365 nm"}
{"compound": "COc1cc(COc2ccc(CCN)cc2O)nc2c(C#N)c(O)ccc12.O=C(O)C(F)(F)F [3c]", "λmax": "354 nm"}
{"compound": "COc1cc(-c2cc(COc3cc(CCN)ccc3O)nc3c(C#N)c(O)ccc23)cc(OC)c1OC.O=C(O)C(F)(F)F [3e]", "λmax": "372 nm"}
{"compound": "Cc1ccc(-c2cc(COc3cc(CCN)ccc3O)nc3c(C#N)c(O)ccc23)cc1.O=C(O)C(F)(F)F [3d]", "λmax": "372 nm"}

* * *

Experiment: One-photon excitation (1PE) photolysis with 365 nm LED, HPLC quantification
Format: physicochemical
Conditions: 1PE 365 nm LED, lamp intensity differs per compound (Table S1)
Description: A 0.1 mM solution (3 mL) of each protected phenol in KMOPS buffer (10 or 20% CH3CN was used as a cosolvent for 3d and 6c) was placed in a 3 mL quartz cuvette along with a stirring bar. […] At different time intervals, 80 μL aliquots of the solution were taken out and analyzed by uHPLC (Agilent 1290 Infinity series), monitoring the AUC at 320 nm (Supporting Information, HPLC Data). An external standard calibration method of quantification was used for the calibration of the samples. […]
measured-attribute: t90% (time required to consume 90% of the starting material) (s)

{"compound": "C=CCc1ccc(OCc2cc(OC)c3ccc(O)c(C#N)c3n2)c(OC)c1 [7c]", "result-units": "s", "recorded-measurement": 19.5}
{"compound": "CCCCCCCCC(=O)NCc1ccc(OCc2cc(OC)c3ccc(O)c(C#N)c3n2)c(OC)c1 [6c]", "result-units": "s", "recorded-measurement": 23.1}
{"compound": "COc1cc(COc2ccc(CCN)cc2O)nc2c(C#N)c(O)ccc12.O=C(O)C(F)(F)F [3c]", "result-units": "s", "recorded-measurement": 25.4}
{"compound": "COc1cc(COc2ccc3[nH]cc(CCN)c3c2)nc2c(C#N)c(O)ccc12.O=C(O)C(F)(F)F [4c]", "result-units": "s", "recorded-measurement": 18.4}
